Listed below: IC50 for inhibition of IL-6 classical signalling-induced proliferation values for each entry.
# measured target: T1, human membrane-bound IL-6R subunit alpha (human, UniProt P08887 20-468)
# T1 sequence: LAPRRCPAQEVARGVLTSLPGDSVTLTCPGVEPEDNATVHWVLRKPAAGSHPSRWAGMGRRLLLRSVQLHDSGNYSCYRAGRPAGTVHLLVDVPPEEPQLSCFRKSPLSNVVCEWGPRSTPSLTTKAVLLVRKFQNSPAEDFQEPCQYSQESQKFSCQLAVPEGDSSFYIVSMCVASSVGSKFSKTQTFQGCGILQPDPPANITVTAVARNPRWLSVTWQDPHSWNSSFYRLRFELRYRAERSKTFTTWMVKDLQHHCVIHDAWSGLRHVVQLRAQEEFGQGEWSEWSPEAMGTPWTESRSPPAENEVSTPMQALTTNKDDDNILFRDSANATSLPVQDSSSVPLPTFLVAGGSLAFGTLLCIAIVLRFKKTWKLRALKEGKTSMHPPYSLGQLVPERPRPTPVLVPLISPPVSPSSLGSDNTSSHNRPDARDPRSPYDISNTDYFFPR
# test name: cell-based or functional assay

# binder, endpoint value
measured = [
    ("anti-IL-6R IgG antibody 07 (C07 antibody, Fab chimerized with human IgG1) (antibody, V domains shown) VH: EVKLVESGGGLVQPGGSLKLSCAASGFTFSSYAMSWVRQTADKRLELVANINSNGGSTYYPDSVKGRFTISRDNAKNTLFLQMSSLKSEDTAMYYCAREGYYTMDYWGQGTSVTVSS VL: DIVLTQSPASLAVSPGQRATISCRASESVDSYGNSFMNWYQQKPGQPPKLLIYLASNLESGVPARFSGSGSRTDFTLTIDPVEADDAATYYCQQNNEDPYTFGGGTKLEIK", "> 0.053 µM"),
]

# context switch: different binder, same IC50 for inhibition of IL-6 classical signalling-induced proliferation
Entry anti-IL-6R IgG antibody 19 (C19 antibody, Fab chimerized with human IgG1) (antibody, V domains shown) VH: EVKLMESGGGLVQPGGSLKLSCAASGFTFSNYGMSWVRQTPDKRLELVAIMNSKGGSTYYPDSVMGRFTISRDNAKNTLYLQMSSLKSEDTAMYYCARDGYYTMDYWGQGTSVTVSS VL: DIVLTQSPASLAVSLGQRATISCRASKSVDSFGNSFMHWYQQKPGQSPRLLIFLASNLESGVPARFSGSGSRTDFTLTIDPVEADDAATYYCQQNNEDPYTFGGGTKLEIK — recorded IC50 for inhibition of IL-6 classical signalling-induced proliferation = > 0.053 µM
